Test system: HS 578T breast
assay-name: NCI-60 one-dose screen, 48 h (100 = growth as untreated, 0 = no growth, -100 = all killed)
experimental-conditions: 10 µM unless noted
This is part of a sample that, as a whole, favours compounds with a hit. Of some 83,000 tested, about 20% had one in any assay. Active and inactive are the calls of the source. Rule for the calls: active = growth percent below 10; inactive = the rest.
Property: growth; scope: individual compounds
measurement-name: growth

structure-notation	target-under-test	result
O=C1c2ccccc2C(=O)c2cc(Cn3cc[n+](Cc4ccc5ccccc5c4)c3)ccc21	HS 578T breast	92.6% (inactive)
Cc1[nH]c(-c2nc3ccccc3[nH]2)c(C)c1C(=O)N1CCOCC1	HS 578T breast	90.4% (inactive)
Cc1cc(-c2noc(C(F)(F)F)n2)ccc1N1CCN(c2cc(C(=O)N(C)C)no2)CC1	HS 578T breast	89.1% (inactive)

The reported measurements were obtained from PubChem BioAssay (NCI).
